# assay.target: GABA-A receptor; GABA-A site (alpha1/beta2 interface) (Homo sapiens) (UniProt P14867+P47870)
# method.description: Modulation of GABA Aalpha1beta2 receptor expressed in Xenopus laevis oocytes assessed as potentiation of GABA-induced chloride current at holding potential -70 mV by two-microelectrode voltage clamp technique relative to GABA
# Type: cell-based
# test.parameters: Oocyte
Would you mind telling me the reported Smax of each entry?
Report the value in % with no unit label.

Short answer for C=CCc1cc(-c2ccc(O)c(CC=C)c2)ccc1O : Smax was 110

The recorded Smax for entry C=CCc1ccc(OCC)c(-c2ccc(O)c(CC=C)c2)c1 equals 1400

response.value for C=CCc1ccc(O)c(-c2ccc(OC)c(CC(C)Br)c2)c1 (stereo not drawn) (field: Smax) = 952

The compound listed as COc1ccc(-c2cc(CC(C)O)ccc2O)cc1CC(C)O (stereo not drawn) has a reported Smax of 161

The compound C=CCc1cc(NCC)c(O)c(-c2ccc(OC)c(CC=C)c2)c1 showed Smax equal to 2290

The compound listed as C=CCc1ccc(OC2CC2)c(-c2ccc(OCCC)c(CC=C)c2)c1 shows Smax equal to 608

Given item CCCc1ccc(O)c(-c2ccc(OC)c(CCC)c2)c1 , the value recorded as its Smax is 1440

Value of measured Smax for the entry C=CCc1cccc(-c2cccc(CC=C)c2O)c1O : 148

Reported Smax of C=CCc1ccc(O)c(-c2ccc(OCC)c(CC=C)c2)c1 : 865

Query C=CCc1ccc(O)c(-c2cc(CC=C)ccc2O)c1 [MAGNOLOL] yields Smax of 963

# Smax of C=CCc1ccc(OCCC)c(-c2ccc(O)c(CC=C)c2)c1 = 145

For this compound ( C=CCc1cc(N)c(O)c(-c2ccc(OC)c(CC=C)c2)c1 ), measured Smax is 2710

Recorded result, CCCc1cc(N)c(O)c(-c2ccc(OC)c(CCC)c2)c1 , Smax: 2260

Form: compound = C=CCc1ccc(O)c(-c2ccc(OC)c(CC=C)c2)c1 [METHYLHONOKIOL] ; Smax = 1530

The reported Smax of the compound C=CCc1cc(-c2ccc(OC)c(CC=C)c2)c(O)c(N(C)C)c1 was 326

The compound C=CCc1cc(NC(C)=O)c(O)c(-c2ccc(OC)c(CC=C)c2)c1 showed Smax equal to 2600

Looking up C=CCc1cc(-c2cc(CC(C)Br)ccc2O)ccc1OC (stereo not drawn) , I found its Smax recorded as 1340

Item: C=CCc1ccc(O)c(-c2ccc(OC)c(/C=C\C)c2)c1 | Smax: 1000

---

# method.description: Octanol-water partition coefficient, log P of the compound
# Format: physicochemical
# test.parameters: read-out: logP
Under this convention, Y denotes logP strictly below 6 and N denotes logP at or above 6.

[ask] Problem: For the compound C=CCc1ccc(OC)c(-c2ccc(OC)c(CC=C)c2)c1 , is logP under 6?
[reply] Y

[ask] In the record for C=CCc1ccc(O)c(-c2ccc(OCCCCC)c(CC=C)c2)c1 , is logP less than 6?
[reply] N

[ask] Please determine if C=CCc1ccc(O)c(-c2cc(CC=C)ccc2OC)c1 is below 6 in terms of logP.
[reply] Y

[ask] logP under 6? Item: CCCCC=CCc1ccc(O)c(-c2ccc(OC)c(CC=CCCCC)c2)c1 (mixture of isomers)
[reply] N

[ask] # check: logP < 6 for C=CCc1ccc(O)c(-c2ccc(OC)c(CC=C)c2)c1 [METHYLHONOKIOL]
[reply] Y

[ask] Take the compound COc1ccc(-c2cc(CC(O)CO)ccc2O)cc1CC(O)CO (stereo unspecified) and say whether its logP is less than 6.
[reply] Y

[ask] In the record for C=CCc1cc(-c2ccc(O)c(CC=C)c2)ccc1O , is logP less than 6?
[reply] Y

[ask] Say whether its logP is strictly beneath 6. Entry: C=CCc1ccc(O)c(-c2ccc(OC)c(/C=C\C)c2)c1
[reply] Y

[ask] Answer whether the compound C=CCc1cc(NC)c(O)c(-c2ccc(OC)c(CC=C)c2)c1 has logP strictly less than 6
[reply] Y

[ask] Is the reported logP for C=CCc1ccc(OCCCCC)c(-c2ccc(O)c(CC=C)c2)c1 strictly below 6?
[reply] N

[ask] Does this compound meet the criterion logP < 6? C=CCc1cc(-c2ccc(OC)c(CC=C)c2)c(O)c(N(C)C)c1
[reply] Y

[ask] Does the reported logP of the following compound sit strictly below 6? C=CCc1ccc(O)c(-c2ccc(O)c(CC=C)c2)c1 [HONOKIOL]
[reply] Y

[ask] Answer whether the compound COc1ccc(-c2cc(CCO)ccc2O)cc1CCO has logP strictly less than 6
[reply] Y

[ask] Take the compound C=CCc1ccc(OCC)c(-c2ccc(OCC)c(CC=C)c2)c1 and say whether its logP is less than 6.
[reply] N

[ask] A record lists C=CCc1ccc(OCCC)c(-c2ccc(O)c(CC=C)c2)c1 . Is its logP below 6?
[reply] N

[ask] Here's an entry: COc1ccc(-c2cc(CC(C)O)ccc2O)cc1CC(C)O (stereo unspecified) . Is its logP below 6?
[reply] Y

[ask] Confirm or reject: logP of CCCc1cc(N)c(O)c(-c2ccc(OC)c(CCC)c2)c1 lies strictly below 6
[reply] Y

[ask] Bench note: check whether C=CCc1ccc(OCC)c(-c2ccc(O)c(CC=C)c2)c1 shows logP below 6
[reply] Y

[ask] Answer whether the compound C=CCc1ccc(O)c(-c2ccc(OCC)c(CC=C)c2)c1 has logP strictly less than 6
[reply] Y

[ask] Is logP strictly under 6 for the entry C=CCc1ccc(OC2CC2)c(-c2ccc(OCCC)c(CC=C)c2)c1 ?
[reply] N

[ask] Record C=CCc1ccc(OCCC)c(-c2ccc(OCCC)c(CC=C)c2)c1 : is its logP strictly below 6?
[reply] N

[ask] Strictly below 6: is that where logP of C=CCc1cc(N)c(O)c(-c2ccc(OC)c(CC=C)c2)c1 sits?
[reply] Y

[ask] For C=CCc1cccc(-c2cccc(CC=C)c2O)c1O , is the recorded logP below the cut-off of 6?
[reply] Y

[ask] In the record for C=CCc1ccc(O)c(-c2cc(CC=C)ccc2O)c1 [MAGNOLOL] , is logP less than 6?
[reply] Y

[ask] Dear colleague, could you confirm whether logP of C=CCc1cc(-c2ccc(OC)c(CC=C)c2)c(O)c([N+](=O)[O-])c1 falls below 6? Thanks.
[reply] Y

[ask] Consider the compound C=CCc1cc(NCC)c(O)c(-c2ccc(OC)c(CC=C)c2)c1 . Is its logP strictly less than 6?
[reply] Y

[ask] Consider the compound C=CCc1cc(NC(C)=O)c(O)c(-c2ccc(OC)c(CC=C)c2)c1 . Is its logP strictly less than 6?
[reply] Y
